Data origin: BigSolDB 2.1

Conditions: in PEG-400, 313.2 K
METRIC NAME: solubility (mole fraction)
Answer as a number with no unit attached.

For this compound ( `C=CC(=O)Nc1cc(Nc2nccc(-c3cn(C)c4ccccc34)n2)c(OC)cc1N(C)CCN(C)C` ), measured solubility (mole fraction) is 0.00583

----------
Conditions: in dichloromethane, 308.2 K
METRIC NAME: solubility (mole fraction)
Lab note: write the figure by itself, no unit.

Entry `C=CC(=O)Nc1cc(Nc2nccc(-c3cn(C)c4ccccc34)n2)c(OC)cc1N(C)CCN(C)C` , solubility (mole fraction) reported as 0.00196

----------
Settings: in transcutol, 298.2 K
METRIC NAME: solubility (mole fraction)
Lab note: jot down the number only; don't add units.

Record `C=CC(=O)Nc1cc(Nc2nccc(-c3cn(C)c4ccccc34)n2)c(OC)cc1N(C)CCN(C)C` . Reported solubility (mole fraction): 0.00144

----------
Conditions: in dichloromethane, 303.2 K
METRIC NAME: solubility (mole fraction)
Form field (numeric): enter value without unit.

The value of solubility (mole fraction) measured for the compound `C=CC(=O)Nc1cc(Nc2nccc(-c3cn(C)c4ccccc34)n2)c(OC)cc1N(C)CCN(C)C` turned out to be 0.0014

----------
Conditions: in propylene glycol, 298.2 K
METRIC NAME: solubility (mole fraction)
Returns: the value as a bare number; no unit string appended.

Note to self: solubility (mole fraction) recorded for `C=CC(=O)Nc1cc(Nc2nccc(-c3cn(C)c4ccccc34)n2)c(OC)cc1N(C)CCN(C)C` was 0.000766

----------
Settings: in ethanol, 303.2 K
METRIC NAME: solubility (mole fraction)
Keep the answer to the number alone.

Kindly note the recorded solubility (mole fraction) for `C=CC(=O)Nc1cc(Nc2nccc(-c3cn(C)c4ccccc34)n2)c(OC)cc1N(C)CCN(C)C` , which is 0.000703

----------
Conditions: in transcutol, 308.2 K
METRIC NAME: solubility (mole fraction)
Answer using only a numeral; do not append any unit.

Short answer for `C=CC(=O)Nc1cc(Nc2nccc(-c3cn(C)c4ccccc34)n2)c(OC)cc1N(C)CCN(C)C` : solubility (mole fraction) was 0.00337

----------
Details: in dichloromethane, 298.2 K
METRIC NAME: solubility (mole fraction)
Give the figure by itself; no unit, no explanation.

The reported value for `C=CC(=O)Nc1cc(Nc2nccc(-c3cn(C)c4ccccc34)n2)c(OC)cc1N(C)CCN(C)C` in terms of solubility (mole fraction) is 0.000939

----------
Conditions: in propylene glycol, 318.2 K
METRIC NAME: solubility (mole fraction)
Provide a numeric answer; units are not to be included.

Record `C=CC(=O)Nc1cc(Nc2nccc(-c3cn(C)c4ccccc34)n2)c(OC)cc1N(C)CCN(C)C` . Reported solubility (mole fraction): 0.00265

----------
Settings: in ethanol, 308.2 K
METRIC NAME: solubility (mole fraction)
Answer with a bare number; do not write a unit.

Documented solubility (mole fraction) of `C=CC(=O)Nc1cc(Nc2nccc(-c3cn(C)c4ccccc34)n2)c(OC)cc1N(C)CCN(C)C` : 0.000989

----------
Details: in ethyl acetate, 313.2 K
METRIC NAME: solubility (mole fraction)
Write the number on its own, no unit after it.

Looking up `C=CC(=O)Nc1cc(Nc2nccc(-c3cn(C)c4ccccc34)n2)c(OC)cc1N(C)CCN(C)C` , I see its solubility (mole fraction) listed as 0.0031

----------
Conditions: in water, 313.2 K
METRIC NAME: solubility (mole fraction)
Reply with just the number.

Noted for `C=CC(=O)Nc1cc(Nc2nccc(-c3cn(C)c4ccccc34)n2)c(OC)cc1N(C)CCN(C)C` : its solubility (mole fraction) reads 3.18e-05

----------
Conditions: in propylene glycol, 303.2 K
METRIC NAME: solubility (mole fraction)
The reply should be a number, written without any unit.

Form field solubility (mole fraction), entry `C=CC(=O)Nc1cc(Nc2nccc(-c3cn(C)c4ccccc34)n2)c(OC)cc1N(C)CCN(C)C` : 0.00106

----------
Settings: in PEG-400, 308.2 K
METRIC NAME: solubility (mole fraction)
Give your answer as a number; write no unit.

solubility (mole fraction) recorded for this compound, `C=CC(=O)Nc1cc(Nc2nccc(-c3cn(C)c4ccccc34)n2)c(OC)cc1N(C)CCN(C)C` , is 0.00421

----------
Conditions: in PEG-400, 298.2 K
METRIC NAME: solubility (mole fraction)
Answer as a number with no unit attached.

For `C=CC(=O)Nc1cc(Nc2nccc(-c3cn(C)c4ccccc34)n2)c(OC)cc1N(C)CCN(C)C` the compound record lists solubility (mole fraction) as 0.00214

----------
Conditions: in water, 303.2 K
METRIC NAME: solubility (mole fraction)

solubility (mole fraction) recorded for this compound, `C=CC(=O)Nc1cc(Nc2nccc(-c3cn(C)c4ccccc34)n2)c(OC)cc1N(C)CCN(C)C` , is 2.24e-05

----------
Conditions: in isopropyl myristate, 318.2 K
METRIC NAME: solubility (mole fraction)
Format: numeric value only, no unit, no commentary.

GET /value?item= `C=CC(=O)Nc1cc(Nc2nccc(-c3cn(C)c4ccccc34)n2)c(OC)cc1N(C)CCN(C)C` &field=solubility (mole fraction) returns 0.00344

----------
Conditions: in water, 318.2 K
METRIC NAME: solubility (mole fraction)
Please state the value as a number alone, without comment.

Sure, the documented solubility (mole fraction) for `C=CC(=O)Nc1cc(Nc2nccc(-c3cn(C)c4ccccc34)n2)c(OC)cc1N(C)CCN(C)C` is 3.69e-05

----------
Conditions: in water, 298.2 K
METRIC NAME: solubility (mole fraction)
Lab note: record the figure alone, no unit after it.

Form: compound = `C=CC(=O)Nc1cc(Nc2nccc(-c3cn(C)c4ccccc34)n2)c(OC)cc1N(C)CCN(C)C` ; solubility (mole fraction) = 1.85e-05

----------
Details: in dichloromethane, 318.2 K
METRIC NAME: solubility (mole fraction)

For reference, reported solubility (mole fraction) for `C=CC(=O)Nc1cc(Nc2nccc(-c3cn(C)c4ccccc34)n2)c(OC)cc1N(C)CCN(C)C` stands at 0.00366

----------
Conditions: in isopropyl myristate, 308.2 K
METRIC NAME: solubility (mole fraction)
Enter a number only.

Note to self: solubility (mole fraction) recorded for `C=CC(=O)Nc1cc(Nc2nccc(-c3cn(C)c4ccccc34)n2)c(OC)cc1N(C)CCN(C)C` was 0.00186

----------
Details: in water, 308.2 K
METRIC NAME: solubility (mole fraction)

Recorded result, `C=CC(=O)Nc1cc(Nc2nccc(-c3cn(C)c4ccccc34)n2)c(OC)cc1N(C)CCN(C)C` , solubility (mole fraction): 2.72e-05

----------
Details: in PEG-400, 303.2 K
METRIC NAME: solubility (mole fraction)
The answer should be a number; do not append a unit.

solubility (mole fraction) measured on `C=CC(=O)Nc1cc(Nc2nccc(-c3cn(C)c4ccccc34)n2)c(OC)cc1N(C)CCN(C)C` = 0.00307

----------
Conditions: in dichloromethane, 313.2 K
METRIC NAME: solubility (mole fraction)
// response body must contain only the number

response.value for `C=CC(=O)Nc1cc(Nc2nccc(-c3cn(C)c4ccccc34)n2)c(OC)cc1N(C)CCN(C)C` (field: solubility (mole fraction)) = 0.0028
